target: NLRP3 inflammasome (Homo sapiens, UniProt Q96P20); construct: host or cells: THP1-Null cells (PMA-differentiated, LPS-primed, nigericin-stimulated); assay: Evaluation of NLRP3 inflammasome inhibitory activity (inhibition of IL-1β production in LPS/Nigericin-stimulated THP1-Null cells, AlphaLISA); assay type: cell-based; settings: IL-1β production in THP1-Null cells; PMA, 1 µg/mL Lipopolysaccharides 3 hours, Nigericin 7.5 µmol/L 1.5 hours; read-out: IC50
Sequence (Q96P20 whole entry): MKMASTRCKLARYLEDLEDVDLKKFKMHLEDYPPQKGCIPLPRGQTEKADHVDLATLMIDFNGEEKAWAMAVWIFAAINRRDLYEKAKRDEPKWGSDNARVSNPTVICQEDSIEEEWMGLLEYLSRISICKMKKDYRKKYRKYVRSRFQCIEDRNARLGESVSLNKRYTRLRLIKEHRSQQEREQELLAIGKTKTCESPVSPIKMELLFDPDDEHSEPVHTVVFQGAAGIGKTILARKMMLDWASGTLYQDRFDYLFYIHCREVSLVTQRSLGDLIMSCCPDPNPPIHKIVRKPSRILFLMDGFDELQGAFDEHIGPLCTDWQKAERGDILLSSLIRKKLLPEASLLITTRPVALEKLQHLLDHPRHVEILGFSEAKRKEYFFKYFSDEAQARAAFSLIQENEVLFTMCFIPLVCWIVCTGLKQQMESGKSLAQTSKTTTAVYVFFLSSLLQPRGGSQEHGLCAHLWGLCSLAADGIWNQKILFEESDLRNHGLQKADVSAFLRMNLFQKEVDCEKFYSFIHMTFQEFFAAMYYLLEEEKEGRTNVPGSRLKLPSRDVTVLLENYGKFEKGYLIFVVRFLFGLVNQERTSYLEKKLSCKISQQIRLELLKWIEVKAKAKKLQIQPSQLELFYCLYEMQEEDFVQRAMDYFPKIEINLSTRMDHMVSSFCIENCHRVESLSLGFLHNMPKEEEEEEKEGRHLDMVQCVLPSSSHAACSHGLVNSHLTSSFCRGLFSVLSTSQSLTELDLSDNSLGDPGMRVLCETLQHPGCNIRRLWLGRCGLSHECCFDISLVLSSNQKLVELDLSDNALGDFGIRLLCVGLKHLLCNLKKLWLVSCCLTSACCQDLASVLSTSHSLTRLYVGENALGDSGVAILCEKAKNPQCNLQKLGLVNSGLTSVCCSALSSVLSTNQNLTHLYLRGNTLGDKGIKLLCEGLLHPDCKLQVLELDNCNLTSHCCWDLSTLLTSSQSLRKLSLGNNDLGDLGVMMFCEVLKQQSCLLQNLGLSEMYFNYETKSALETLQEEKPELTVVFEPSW
The entries below are paired with their reported pIC50.
In simple prose, pIC50 is minus the logarithm base ten of a concentration in moles per litre.

[[record]]
compound = "COCC1C(c2nc3nn(-c4c(C)cc(C5CC5)cc4C)cc3c(=O)[nH]2)C1(F)F (racemic)"
tested_system = "NLRP3 inflammasome (Homo sapiens, UniProt Q96P20)"
readout_name = "pIC50"
measured_value = 7.40

[[record]]
compound = "Cc1cc(Br)cc(C)c1-n1cc2c(=O)[nH]c(C(C)O)nc2n1 (racemic)"
tested_system = "NLRP3 inflammasome (Homo sapiens, UniProt Q96P20)"
readout_name = "pIC50"
measured_value = 7.62

[[record]]
compound = "Cc1cc(Br)cc(C)c1-n1cc2c(=O)[nH]c(CC3COCCO3)nc2n1 (racemic)"
tested_system = "NLRP3 inflammasome (Homo sapiens, UniProt Q96P20)"
readout_name = "pIC50"
measured_value = 6.85


Using the record for Cc1cc(C2CC2)cc(C)c1-n1cc2c(=O)[nH]c(C3(F)CCOCC3)nc2n1 , report its pIC50.
7.68

----------
As shown below, each of these compounds has a reported IC50 value.
Target: NLRP3 inflammasome (Homo sapiens, UniProt Q96P20)
Construct: host or cells: THP1-Null cells (PMA-differentiated, LPS-primed, nigericin-stimulated)
Assay: Evaluation of NLRP3 inflammasome inhibitory activity (inhibition of IL-1β production in LPS/Nigericin-stimulated THP1-Null cells, AlphaLISA)
Type: cell-based
Conditions: IL-1β production in THP1-Null cells; PMA, 1 µg/mL Lipopolysaccharides 3 hours, Nigericin 7.5 µmol/L 1.5 hours; read-out: IC50
Procedure: The NLRP3 inflammasome inhibitory activity of test compounds were evaluated on the basis of the inhibitory activity of the IL-1β production in THP1-Null cells (Product Number: thp-null, InvivoGen). […] The amount of IL-1β in the culture supernatant was quantitated with AlphaLISA (registered trademark) Human IL-1β Detection Kit (Product Number: AL220C, Perkin Elmer). […]
# do not omit the unit; it follows the number

Please review the following examples before continuing.
[[record]]
compound = "Cc1cc(C(C)(C)F)cc(C)c1-n1cc2c(=O)[nH]c(C3(F)CCOCC3)nc2n1"
measured_value = "0.017 µM"

[[record]]
compound = "Cc1cc(C2CC2)cc(C)c1-n1cc2c(=O)[nH]c(C3CCOCC3)nc2n1"
measured_value = "0.004 µM"

[[record]]
compound = "Cc1cc(C2CC2)cc(C)c1-n1cc2c(=O)[nH]c(C3CCOCCO3)nc2n1 (single isomer, unassigned) [Example 179]"
measured_value = "0.051 µM"


Given the entry Cc1cc(OC(F)F)cc(C)c1-n1cc2c(=O)[nH]c(C3CCOCC3)nc2n1 , report its measured IC50.
0.022 µM

Then COCc1c2c(=O)[nH]c(C3CC3)nc2nn1-c1c(C)cc(C2CC2)cc1C ?
0.018 µM

Again, but for Cc1cc(C2CC2)cc(C)c1-n1cc2c(=O)[nH]c(COC(F)F)nc2n1
0.013 µM

Then what about the compound Cc1ccc(-n2cc3c(=O)[nH]c(C4CCS(=O)(=O)C4)nc3n2)c(C)c1 (racemic) ?
0.27 µM

----------
Reported IC50 values are given for each entry in this list.
biological target: NLRP3 inflammasome (Homo sapiens); construct: host or cells: THP1-Null cells (PMA-differentiated, LPS-primed, nigericin-stimulated); assay: Evaluation of NLRP3 inflammasome inhibitory activity (inhibition of IL-1β production in LPS/Nigericin-stimulated THP1-Null cells, AlphaLISA); type: cell-based; details: IL-1β production in THP1-Null cells; PMA, 1 µg/mL Lipopolysaccharides 3 hours, Nigericin 7.5 µmol/L 1.5 hours; read-out: IC50
Enter your answer as a number in nM; do not include the unit.

Previously resolved entries follow.
[[record]]
compound = "CCOCCc1nc2nn(-c3c(C)cc(Br)cc3C)cc2c(=O)[nH]1"
tested_system = "NLRP3 inflammasome (Homo sapiens)"
unit_of_measurement = "nM"
measured_value = 98

[[record]]
compound = "Cc1cc(Br)cc(C)c1-n1cc2c(=O)[nH]c(C(O)C(F)F)nc2n1 (racemic)"
tested_system = "NLRP3 inflammasome (Homo sapiens)"
unit_of_measurement = "nM"
measured_value = 36

[[record]]
compound = "Cc1ccccc1-n1cc2c(=O)[nH]c(C3CCCC3)nc2n1"
tested_system = "NLRP3 inflammasome (Homo sapiens)"
unit_of_measurement = "nM"
measured_value = 2300

[[record]]
compound = "Cc1cc(Br)cc(C)c1-n1cc2c(=O)[nH]c(COC3CCCOC3)nc2n1 (racemic)"
tested_system = "NLRP3 inflammasome (Homo sapiens)"
unit_of_measurement = "nM"
measured_value = 350


Please turn your attention to the following entry.
Which IC50 is reported for this compound? Cc1cc(Br)cc(C)c1-n1cc2c(=O)[nH]c(COCCC(C)(C)O)nc2n1
190

----------
target: NLRP3 inflammasome (Homo sapiens, UniProt Q96P20); construct: host or cells: THP1-Null cells (PMA-differentiated, LPS-primed, nigericin-stimulated); test: Evaluation of NLRP3 inflammasome inhibitory activity (inhibition of IL-1β production in LPS/Nigericin-stimulated THP1-Null cells, AlphaLISA); type: cell-based; conditions: IL-1β production in THP1-Null cells; PMA, 1 µg/mL Lipopolysaccharides 3 hours, Nigericin 7.5 µmol/L 1.5 hours; read-out: IC50
readout name: IC50 (nM)
Write down the numeric answer in nM and omit the unit.

Previously resolved entries follow.
[[record]]
compound_structure_string = "CNC(=O)c1nc2nn(-c3c(C)cc(C4CC4)cc3C)cc2c(=O)[nH]1"
unit_of_measurement = "nM"
measured_value = 22

[[record]]
compound_structure_string = "Cc1cc(C2CC2)cc(C)c1-n1cc2c(=O)[nH]c(C3=CCOCC3)nc2n1"
unit_of_measurement = "nM"
measured_value = 5

[[record]]
compound_structure_string = "COc1cc(C)c(-n2cc3c(=O)[nH]c(C45CC(CO)(CO4)C5)nc3n2)c(C)c1"
unit_of_measurement = "nM"
measured_value = 220


We now examine a further compound.
Which IC50 is listed for CCc1nc2nn(-c3c(C)cc(C4(F)CC4)cc3C)cc2c(=O)[nH]1 ?
20

Data origin, for the record: patent EP4671247A1
